- Test system: Fibroblast
- protocol-details: Multiplex assay against human fibroblast
- Assay type: toxicity, cell-based
- assay-conditions: 12 h, 10 µM, compound concentration 10 uM, replicate 2
# key: entry, value: Population Hoechst High Intensity Objects (%)
quantity: Population Hoechst High Intensity Objects (%)

{"structure-notation": "CC(C)(C)c1cnc(CSc2cnc(NC(=O)C3CCNCC3)s2)o1", "unit-annotation": "%", "measurement": 26}
{"structure-notation": "CCOc1cc(N2CCC(O)CC2)ccc1Nc1ncc2c(n1)N(C1CCCC1)CCC(=O)N2C", "unit-annotation": "%", "measurement": 29}
{"structure-notation": "CC(C)N1CCC(C)(C)c2cc(C#Cc3ccc(C(=O)O)cc3)ccc21", "unit-annotation": "%", "measurement": 71}
{"structure-notation": "CNC(=O)c1cc(Oc2ccc(NC(=O)Nc3cc(C(C)(C)C)nn3-c3ccc4ncccc4c3)c(F)c2)ccn1", "unit-annotation": "%", "measurement": 45}

----------
- System: HEK-293T
- protocol-details: Multiplex assay against HEK293T
- Format: toxicity, cell-based
- assay-conditions: human, 24 h, 1 µM, compound concentration 1 uM, replicate 2
Classification field: yes (1) = Total Cell Count at or over 900; no (0) = Total Cell Count under 900.

{"compound": "COc1cc2c(Nc3ccc(NC(=O)c4ccccc4)cc3)ncnc2cc1OCCCN1CCOCC1", "answer-label": "yes (1)"}
{"compound": "Nc1nc2c(c(N3CCNCC3)n1)CCC1=C2[C@@H]2CCCC[C@@H]2O1", "answer-label": "no (0)"}
{"compound": "CCC(=O)O[C@]1(C(=O)SCF)[C@H](C)C[C@H]2[C@@H]3C[C@H](F)C4=CC(=O)C=C[C@]4(C)[C@@]3(F)[C@@H](O)C[C@@]21C [FLUTICASONE PROPIONATE]", "answer-label": "no (0)"}
{"compound": "COc1cc(N2CCC(N(C)C)CC2)ccc1Nc1ncc(Cl)c(Nc2ccccc2P(C)(C)=O)n1", "answer-label": "yes (1)"}
{"compound": "CCn1c(-c2nonc2N)nc2cnc(Oc3cccc(NC(=O)c4ccc(OCCN5CCOCC5)cc4)c3)cc21 [GSK-269962A]", "answer-label": "no (0)"}
{"compound": "CC(C)(C)c1cnc(CSc2cnc(NC(=O)C3CCNCC3)s2)o1", "answer-label": "yes (1)"}
{"compound": "CNC(=O)c1cc(Oc2ccc(NC(=O)Nc3cc(C(C)(C)C)nn3-c3ccc4ncccc4c3)c(F)c2)ccn1", "answer-label": "yes (1)"}
{"compound": "Cl.Cl.NC1(c2ccc(-c3nc4ccn5c(=O)[nH]nc5c4cc3-c3ccccc3)cc2)CCC1", "answer-label": "yes (1)"}

----------
- Tested on: HEK-293T
- protocol-details: Multiplex assay against HEK293T
- Assay type: toxicity, cell-based
- assay-conditions: human, 48 h, 10 µM, compound concentration 10 uM, replicate 2
quantity: Population Membrane Permeable-Phenotype (%)

{"compound": "COc1cc2c(NC3CCN(C(C)C)CC3)nc(N3CCC(F)(F)CC3)nc2cc1OCCCN1CCCC1", "measurement": "5%"}
{"compound": "Cc1nc(Cc2cccc(C(F)(F)F)c2)sc1-c1ccc(C(N)=O)nc1 [TP-024n]", "measurement": "6%"}
{"compound": "CCc1cc2c(cc1CC)CC(NC[C@H](O)c1ccc(O)c3[nH]c(=O)ccc13)C2 [INDACATEROL]", "measurement": "6%"}
{"compound": "Cc1cc2c(cc1N1C(=O)c3cccc4c(CCCO)ccc(c34)C1=O)n(C)c(=O)n2C", "measurement": "3%"}
{"compound": "CC(=O)c1cc(-c2cc(C(=O)NC3CC3)ccc2C)c2ncccn12", "measurement": "5%"}
